# assay-remarks: blockers of cellular phospholipid synthesis – cell-based, LOPAC library, screen 4, primary screen (AID 1347384)
# condition: animal cells, phospholipid biosynthesis inhibition screen; at 10 µM
The source made the active and inactive calls. No rule for the calls is given here.
Outcomes: Y = active, N = inactive

Cc1cccc(C)c1OCC(N)C(C)C (configuration not stated) : N
CC(=O)C(C)=O : N
COC(=O)C(N)Cc1ccc(Cl)cc1 (configuration not stated) : N
Nc1ccn(C2O[C@H](CO)[C@@H](O)C2(F)F)c(=O)n1 (some centres not stated) : N
N[C@H](C(=O)O)[C@H](Cc1ccccc1)C(=O)O : N
N#CC(C#N)=C(N)/C(C#N)=C/c1ccc(O)cc1 : N
NC(CCCP(=O)(O)O)C(=O)O (configuration not stated) : N
CC(=O)O[C@H]1CC2(C)[C@@H](C[C@@H](O)[C@H]3[C@@]4(C)CC[C@@H](O)[C@@H](C)[C@@H]4CC[C@@]32C)/C1=C(/CCC=C(C)C)C(=O)O (some centres not stated) : N
Cc1cc(Cn2cnc3c2C[C@@H](C(=O)O)N(C(=O)C(c2ccccc2)c2ccccc2)C3)ccc1N : N
CCOC(=O)C1=C(C)NC(C)=C(C(=O)OCC)C1c1c(F)c(F)c(F)c(F)c1F : N
O=C1c2ccccc2C(=O)c2c(NCCc3ccc(O)cc3)ccc(NCCc3ccc(O)cc3)c21 : Y
CC(C)C[C@H](NC(=O)[C@H](O)[C@H](N)Cc1ccccc1)C(=O)O : N
N[C@@H](Cc1ccc(F)cc1)C(=O)O : N
CN1C2CCC1CC(OC(=O)C(O)c1ccccc1)C2 (configuration not stated) : N
Nc1ncnc2c1ncn2[C@@H]1O[C@H](CO)[C@H](O)C1O (some centres not stated) : N
Cc1nc(N=Nc2ccc(S(=O)(=O)O)cc2S(=O)(=O)O)c(COP(=O)(O)O)c(C=O)c1O : N
OCC1O[C@H]([S-])[C@@H](O)C(O)[C@@H]1O.[Au+] (some centres not stated) : N
CCC1(O)CC2CN(CCc3c([nH]c4ccccc34)[C@@](C(=O)OC)(c3cc4c(cc3OC)N(C=O)C3[C@]45CCN4CC=C[C@@](CC)([C@@H](OC(C)=O)[C@]3(O)C(=O)OC)[C@H]45)C2)C1 (some centres not stated) : N
CSc1ccccc1N1CCN(CCCCCC(=O)NC2CCCc3ccccc32)CC1 (configuration not stated) : N
Nc1ncnc2c1ncn2[C@@H]1O[C@H](COP(=O)(O)OP(=O)(O)OP(=O)(O)OP(=O)(O)OC[C@@H]2O[C@H](n3cnc4c(N)ncnc43)C(O)[C@@H]2O)[C@H](O)C1O (some centres not stated) : N
C[N+]1(C)C2CC(OC(=O)[C@H](CO)c3ccccc3)CC1C1OC12 (some centres not stated) : N
O=C(CCSCc1ccco1)NNC(=O)N1Cc2ccccc2Oc2ccc(Cl)cc21 : N
COc1cc(/C=C(\C#N)C(=O)c2ccc(O)c(O)c2)cc(I)c1O : N
O=c1cc(O)cc(/C=C/c2ccc(O)c(O)c2)o1 : N
COC(=O)C1=C(C)NC(C)=C(C(=O)OC)C1c1cccc(NC(=O)NCCCN2CCC(c3cccc(OC)c3)CC2)c1 : N
OC[C@H]1OC(n2cnc3c(N[C@H]4CCC[C@@H]4O)ncnc32)[C@H](O)[C@@H]1O (some centres not stated) : N
N[C@@H](Cc1ccc(O)c(I)c1)C(=O)O : N
C=C1C(=O)O[C@@H]2[C@H]3O[C@]3(C)CCC=C(C)CC[C@@H]12 : N
CCCC[C@@]1(C2CCCC2)Cc2cc(OCC(=O)O)c(Cl)c(Cl)c2C1=O : N
CCCn1c(=O)[nH]c(=O)c2[nH]cnc21 : N
C[C@](Cc1ccc(O)c(O)c1)(NN)C(=O)O : N
COc1cc(C(O)CO)ccc1OS(=O)(=O)O (configuration not stated) : N
C[C@H](O)C(=O)C1=Nc2c(nc(N)[nH]c2=O)NC1 : N
O=C1CCC(c2ccc(-n3ccnc3)cc2)=NN1 : N
O=c1ccc2c(OCCCCc3ccccc3)c3ccoc3cc2o1 : N
CC(C)c1cccc(C(C)C)c1N1C(=O)c2ccc(O)cc2C1=O : N
CNCCc1cnc(CCC(c2ccccc2)c2ccccc2)[nH]1 : N
C=CC1=C(C)c2cc3[nH]c(cc4nc(cc5[nH]c(cc1n2)c(C)c5CCC(=O)O)C(CCC(=O)O)=C4C)c(C)c3C=C : N
CN1CCc2cc(NC(=O)Nc3cccnc3)ccc21 : N
Cn1c(=O)c2[nH]c(-c3ccc(S(=O)(=O)O)cc3)nc2n(C)c1=O : N
Cc1cc(Nc2ncc3cc(-c4c(Cl)cccc4Cl)c(=O)n(C)c3n2)ccc1F : N
NC1CCN(O)C1=O (configuration not stated) : N

----------
Consider the following molecules and their measured inhibition readings.
# assay-remarks: growth inhibition, single agents and combos, LFS_MB_1R, cell-based, cisplatin or BGB combos, synergistic combos for chromothripsis tumors (AID 1671452);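 also: cells exposed for 96 hours before readout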
# condition: LFS_MB_1R medulloblastoma cells, measured here: combination with cisplatin, at 0.5 µM, stronger effect = higher value
quantity: inhibition

O=c1[nH]cnc2c1ncn2C1CCC(CO)O1 (stereo not drawn) : -27.1%
CC(=O)C1(O)Cc2c(O)c3c(c(O)c2C(OC2CC(N)C(O)C(C)O2)C1)C(=O)c1ccccc1C3=O (stereo not drawn) : 103%
C=C(NC(=O)C(=C)NC(=O)c1csc(C2=NC3c4csc(n4)C4NC(=O)c5csc(n5)C(C(C)(O)C(C)O)NC(=O)C5CSC(=N5)/C(=C/C)NC(=O)C(C(C)O)NC(=O)c5csc(n5)C3(CC2)NC(=O)C(C)NC(=O)C(=C)NC(=O)C(C)NC(=O)C(C(C)CC)NC2C=Cc3c(C(C)O)cc(nc3C2O)C(=O)OC4C)n1)C(N)=O (stereo not drawn) : -9.9%

----------
# assay-remarks: viability loss with induced miR-34 in A549 – imaging, A549 dox-inducible miR-34, nuclei and caspase counts, primary screen (AID 1347080)
# condition: A549 miR-34 inducible, Hoechst nuclei count, 48 h; measured here: total cells with miR-34 induction; stronger effect = lower value
quantity: cell count

CCc1noc(Cn2cnc3sc4c(c3c2=O)CCC(C)C4)n1 (stereo not given) : 8510
Cc1nsc(NC(=O)N(C)Cc2cn[nH]c2-c2ccc(F)cc2)n1 : 9230
CN=C(NC)NCc1ccccc1 : 9010
C=C1C(=CC=C2CCC[C@@]3(C)[C@H]2CC[C@H]3C(C)C=CC(C)C(C)C)CC(O)CC1O (stereo not given in full) : 7360
O=c1ccn([C@@H]2O[C@H](COP(=O)(O)OP(=O)(O)O)[C@@H](O)[C@H]2O)c(=O)[nH]1 : 9420
COCC(NC(=O)c1cnc(C)s1)C(=O)NC(COC)C(=O)NC(Cc1ccccc1)C(=O)C1(C)CO1 (stereo not given) : 714
O=C(c1ccc2c(c1)OCCO2)N1CCCCC1 : 9110
CC1COc2c(C3(N)CC3)c(F)cc3c(=O)c(C(=O)O)cn1c23 (stereo not given) : 9830
CCc1nc(NC(=O)N(C)Cc2cccc(-n3cccn3)c2)nn1C : 7990
CCN1CCN(C(=O)NC(C(=O)NC2C(=O)N3C2SC(C)(C)C3C(=O)O)c2ccccc2)C(=O)C1=O (stereo not given) : 8860

----------
# assay-remarks: BT084 cell growth, single and combined drugs, ICGC_MB145, cisplatin and BGB IC40 combos (AID 1671461);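 also: cells exposed to drugs for 96 hours; 0% = vehicle DMSO and 100% = high DMSO full killing control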
# condition: BT084 medulloblastoma cells, drug combinations, cisplatin combination, at 5 µM, stronger effect = higher value
quantity: inhibition

Cn1cc(-c2cnn3c(N)c(Br)c([C@H]4CCCNC4)nc23)cn1 : -105%
COc1cccc2c1C(=O)c1c(O)c3c(c(O)c1C2=O)CC(O)(C(=O)CO)CC3OC1CC(N)C(OC2CCCCO2)C(C)O1 (stereo not drawn) : -6.21%
C[C@@H]1O[C@@H](O[C@@H]2[C@@H](O)[C@H](OCCc3ccc(O)c(O)c3)O[C@H](CO)[C@H]2OC(=O)C=Cc2ccc(O)c(O)c2)[C@H](O)[C@H](O)[C@H]1O : -157%
O=C(CCCCCCC(=O)Nc1ccc(I)cc1)NO : 105%
C[n+]1ccc(-c2c3nc(c(-c4cc[n+](C)cc4)c4ccc([nH]4)c(-c4cc[n+](C)cc4)c4nc(c(-c5cc[n+](C)cc5)c5ccc2[nH]5)C=C4)C=C3)cc1 : 4.22%
CON=C1CN(c2nc3c(cc2F)c(=O)c(C(=O)O)cn3C2CC2)CC1CN (stereo not drawn) : -140%
O=c1[nH]c(=O)n(C2CC(O)C(CO)O2)cc1I (stereo not drawn) : -44.5%
Cc1ccc([N+](=O)[O-])cc1S(=O)(=O)N(C)/N=C\c1cnc2ccc(Br)cn12 : -30.7%
Nc1ccn(C2CCC(CO)O2)c(=O)n1 (stereo not drawn) : -52%
Cc1cn(C2C=CC(CO)O2)c(=O)[nH]c1=O (stereo not drawn) : -5.39%
O=C(CCCCCCC(=O)NO)NO : 18.3%
NC(=O)c1cccc2cn(-c3ccc(C4CCCNC4)cc3)nc12 (stereo not drawn) : -1.06%
O=c1cc(-c2ccc(O)cc2)[nH]c(=S)[nH]1 : -121%
Nc1nc(NC2CC2)cc(-c2cccc(Cl)c2Cl)n1 : -20.8%
C=CC1=C(C)C2=CC3=NC(=C(CC(=O)O)C4=NC(=C(C)C4=C(O)O)C=c4[nH]c(c(C)c4CC)=CC1=N2)C(CCC(=O)O)C3C (stereo not drawn) : -40.8%
O=c1ccn(C2CC(O)C(CO)O2)c(=O)[nH]1 (stereo not drawn) : 1.74%
Cc1cc(C=CC#N)cc(C)c1Nc1ccnc(Nc2ccc(C#N)cc2)n1 : -4.4%
CC=C1NC(=O)C2CSSCCC=CC(CC(=O)NC(C(C)C)C(=O)N2)OC(=O)C(C(C)C)NC1=O (stereo not drawn) : 106%
NC(=O)c1ncn(C2OC(CO)C(O)C2O)c1O (stereo not drawn) : -20.7%
CC1CNC(=O)NC1=O (stereo not drawn) : -47.1%
CC1CN(c2c(F)c(N)c3c(=O)c(C(=O)O)cn(C4CC4)c3c2F)CC(C)N1 (stereo not drawn) : -70.7%
CC(=O)C1(O)Cc2c(O)c3c(c(O)c2C(OC2CC(N)C(O)C(C)O2)C1)C(=O)c1ccccc1C3=O (stereo not drawn) : 77.4%
C[C@@H]1COCCN1c1cc(C2(S(C)(=O)=O)CC2)nc(-c2cccc3[nH]ccc23)n1 : 58%
Cc1ccc(NC(=O)CCCCCC(=O)Nc2ccccc2N)cc1 : 68.8%
Cc1c(Br)cc(NCC(=O)N/N=C/c2cc([N+](=O)[O-])ccc2O)cc1Br : 27.3%
CC1OC(CC(=O)O)CC2=C1C(=O)c1c(O)cccc1C2=O (stereo not drawn) : 110%
CC1OC(n2cc(F)c(=O)[nH]c2=O)C(O)C1O (stereo not drawn) : 3.57%
COc1ccccc1S(=O)(=O)Nc1ccc2c(c1)CN(C)C(=O)N2 : 15.1%
C=C1C(=O)O[C@@H]2C=C(C)CCC=C(C)CC[C@@H]12 : 48.9%
C=C(NC(=O)C(=C)NC(=O)c1csc(C2=NC3c4csc(n4)C4NC(=O)c5csc(n5)C(C(C)(O)C(C)O)NC(=O)C5CSC(=N5)/C(=C/C)NC(=O)C(C(C)O)NC(=O)c5csc(n5)C3(CC2)NC(=O)C(C)NC(=O)C(=C)NC(=O)C(C)NC(=O)C(C(C)CC)NC2C=Cc3c(C(C)O)cc(nc3C2O)C(=O)OC4C)n1)C(N)=O (stereo not drawn) : 91.8%
NC(=O)c1cccc2[nH]c(-c3ccc(C4CCCN4)cc3F)nc12 (stereo not drawn) : 41.8%
CC(C)c1ccc(-c2cc(=O)c3ccccc3o2)cc1 : 41.9%
COc1ccc(-c2nc(-c3cc(C(F)(F)F)cc(C(F)(F)F)c3)n(Cc3ccc(C(N)=O)cc3)c2-c2ccc(OC)cc2)cc1 : -208%
O=C(O)c1cc2cccc([N+](=O)[O-])c2[nH]1 : -2.07%
C[C@H](NC(=O)c1ccccc1N=Cc1c(O)ccc2ccccc12)c1ccccc1 : -186%
Nc1ccccc1NC(=O)c1cnccn1 : -35.5%
O=C1C(=Cc2cccnc2)C(=O)c2ccccc21 : -101%
CC(C)(O)[C@H]1CC[C@@](C)(C2[C@@H](O)C[C@@]3(C)[C@@H]4C[C@H](O)C5C(C)(C)[C@@H](O)CCC56CC46CC[C@]23C)O1 (stereo partly drawn) : -121%
